- test: in vivo
- details: swiss nude, mouse, blood pool surrogate (BPS), iv
Numbered stars: 1 amine (or outer) side, 2 acyl side, 3 side chain; on linkers, the order of the positions; unused ones are H or OH. Bridge positions count the residues as written; N and C are the ends. Square brackets hold non-standard residues; d marks the D form. Peptide text beside a SMILES is read from it. * marks the point of attachment. X1 = NCCNCC(CNCCN)C(=O)N1CCN(CC(=O)NCCCOCCOCCOCCCN*)CC1; mXylylene = c1cc(C[*:1])cc(C[*:2])c1; Suc = O=C(CCC(=O)[*:2])[*:1]; Nle = CCCC[C@H](N)C(=O)O; βAla = NCCC(=O)O
Can you tell me tissue uptake at 3 h for the items I'm about to list?
Quick note: give the figure in %ID/g, leave out the unit.

In: What value of measured tissue uptake at 3 h is listed for CCCC[C@H](NC(=O)CCC(=O)NCCCOCCOCCOCCCNC(=O)CN1CCN(C(=O)C(CNCCN)CNCCN)CC1)C(=O)N[C@H]1CSCc2cncc(c2)CSCC(C(=O)O)NC(=O)[C@H](Cc2ccccc2)NC(=O)[C@H](CCC(N)=O)NC(=O)[C@H]([C@@H](C)O)NC(=O)[C@@H]2CCCN2C(=O)[C@@H]2CCCN2C1=O (stereo partly drawn) ?
Out: 0.06

In: May I ask what tissue uptake at 3 h has been recorded for CCCC[C@H](NC(=O)CCOCCOCCOCCOCCOCCOCCNC(=O)C(CNCCN)CNCCN)C(=O)N[C@H]1CSCc2cccc(c2)CSCC(C(=O)O)NC(=O)[C@H](Cc2ccccc2)NC(=O)[C@H](CCC(N)=O)NC(=O)[C@H]([C@@H](C)O)NC(=O)[C@@H]2CCCN2C(=O)[C@@H]2CCCN2C1=O (stereo partly drawn) ?
Out: 0.07

In: So what does the record say about tissue uptake at 3 h for CCCC[C@H](NC(=O)CCC(=O)NCCCOCCOCCOCCCNC(=O)CN1CCN(C(=O)C(CNCCN)CNCCN)CC1)C(=O)N[C@H]1CSCc2cccc(c2)CSC[C@@H](C(=O)NCCC(=O)O)NC(=O)[C@H](Cc2ccccc2)NC(=O)[C@H](CCC(=O)O)NC(=O)[C@H]([C@@H](C)O)NC(=O)[C@@H]2CCCN2C(=O)[C@@H]2CCCN2C1=O [3BP-4784] ({X1-Suc}-[Nle]CPPTEFC[βAla]-OH; linker 2-8 via mXylylene) ?
Out: 0.63

In: Requested read-out: tissue uptake at 3 h. Entry: `CCCCNC(=O)N[C@H]1CSCc2cc(cc(CN3CCN(C(=O)C(CNCCN)CNCCN)CC3)c2)CSC[C@@H](C(=O)O)NC(=O)[C@H](Cc2ccccc2)NC(=O)[C@H](CCC(N)=O)NC(=O)[C@H]([C@@H](C)O)NC(=O)[C@@H]2CCCN2C(=O)[C@@H]2CCCN2C1=O`
Out: 1.46

In: // lookup tissue uptake at 3 h for `CCCC[C@H](NC(=O)CCC(=O)NCCCOCCOCCOCCCNC(=O)CN1CCN(C(=O)C(CNCCN)CNCCN)CC1)C(=O)N[C@H]1CSCc2cncc(c2)CSC[C@@H](C(=O)NCCC(=O)O)NC(=O)[C@H](Cc2ccccc2)NC(=O)[C@H](CCC(N)=O)NC(=O)[C@H]([C@@H](C)O)NC(=O)[C@@H]2CCCN2C(=O)[C@@H]2CCCN2C1=O`
Out: 0.31

In: tissue uptake at 3 h lookup needed for CCCC[C@H](NC(=O)CCOCCOCCOCCOCCOCCOCCNC(=O)C(CNCCN)CNCCN)C(=O)N[C@H]1CSCc2cncc(c2)CSCC(C(=O)O)NC(=O)[C@H](Cc2ccccc2)NC(=O)[C@H](CCC(N)=O)NC(=O)[C@H]([C@@H](C)O)NC(=O)[C@@H]2CCCN2C(=O)[C@@H]2CCCN2C1=O (stereo partly drawn) , thanks.
Out: 0.03

---

Field: IC50. Provide a value for each of the compounds that follow.
Numbered stars: 1 amine (or outer) side, 2 acyl side, 3 side chain; on linkers, the order of the positions; unused ones are H or OH. Bridge positions count the residues as written; N and C are the ends. Square brackets hold non-standard residues; d marks the D form. Peptide text beside a SMILES is read from it. mXylylene = c1cc(C[*:1])cc(C[*:2])c1; NMeF = CN[C@@H](Cc1ccccc1)C(=O)O

In: Recorded IC50 for C[C@@H](O)[C@@H]1NC(=O)[C@@H]2CCCN2C(=O)[C@@H]2CCCN2C(=O)[C@@H](NC(=O)[C@@H]2CCCO2)CSCc2cc(CSCCNC(=O)CN3CCN(CC(=O)O)CCN(CC(=O)O)CCN(CC(=O)O)CC3)cc(c2)CSC[C@@H](C(=O)O)NC(=O)[C@H](Cc2ccccc2)NC(=O)[C@H](CCC(N)=O)NC1=O [3BP-3936] with UniProtKB Q12884, please?
Out: 10 to 79.4 nM

In: What IC50 appears in the records for this compound with UniProtKB Q12884? CSCC[C@H](NC(C)=O)C(=O)N[C@H]1CSCc2cccc(c2)CSC[C@@H](C(=O)N[C@@H](CC(=O)O)C(=O)N[C@@H](Cc2c[nH]cn2)C(=O)N(C)[C@@H](Cc2ccccc2)C(=O)N[C@@H](CCCNC(=N)N)C(=O)N[C@@H](CC(=O)O)C(N)=O)NC(=O)[C@H](Cc2ccccc2)NC(=O)[C@H](CCC(=O)O)NC(=O)[C@H]([C@@H](C)O)NC(=O)[C@@H]2CCCN2C(=O)[C@@H]2CCCN2C1=O [3BP-3188] (Ac-MCPPTEFCDH[NMeF]RD-NH2; linker 2-8 via mXylylene)
Out: < 10 nM

In: # value lookup — system UniProtKB Q12884, readout IC50, item CSCC[C@@H](NC(C)=O)C(=O)N[C@H]1CSCc2cc(CSCCNC(=O)CN3CCN(CC(=O)O)CCN(CC(=O)O)CCN(CC(=O)O)CC3)cc(c2)CSC[C@@H](C(=O)O)NC(=O)[C@H](Cc2ccccc2)NC(=O)[C@H](CCC(N)=O)NC(=O)[C@H]([C@@H](C)O)NC(=O)[C@@H]2CCCN2C(=O)[C@@H]2CCCN2C1=O [3BP-3682]
Out: 10 to 79.4 nM

---

Kindly state IC50 for each of the entries shown.
Numbered stars: 1 amine (or outer) side, 2 acyl side, 3 side chain; on linkers, the order of the positions; unused ones are H or OH. Bridge positions count the residues as written; N and C are the ends. Peptide text beside a SMILES is read from it. * marks the point of attachment. TBMB(SCH2CH2NH-DOTA) = O=C(O)CN1CCN(CC(=O)O)CCN(CC(=O)NCCSCc2cc(C[*:1])cc(C[*:2])c2)CCN(CC(=O)O)CC1; Hexanoyl = CCCCCC(=O)*

In: Requested read-out IC50, target or system UniProt Q12884, entry `CCCCCC(=O)N[C@H]1CSCc2cc(CSCCNC(=O)CCC(=O)NCCCOCCOCCOCCCNC(=O)[C@H](CO)NC(=O)[C@H](CO)NC(=O)[C@H](CO)NC(=O)CS)cc(c2)CSC[C@@H](C(=O)O)NC(=O)[C@H](Cc2ccccc2)NC(=O)[C@H](CCC(N)=O)NC(=O)[C@H]([C@@H](C)O)NC(=O)[C@@H]2CCCN2C(=O)[C@@H]2CCCN2C1=O`
Out: 10 to 79.4 nM

In: Param readout = IC50; param system = UniProt Q12884; param query = CCCCCC(=O)N[C@H]1CSCc2cc(CSCCNC(=O)CN3CCN(CC(=O)O)CCN(CC(=O)O)CCN(CC(=O)O)CC3)cc(c2)CSC[C@@H](C(=O)N[C@@H](CO)C(=O)O)NC(=O)[C@H](Cc2ccccc2)NC(=O)[C@H](CCC(N)=O)NC(=O)[C@H]([C@@H](C)O)NC(=O)[C@@H]2CCCN2C(=O)[C@@H]2CCCN2C1=O [3BP-3658] (Hexanoyl-CPPTQFCS-OH; linker 1-7 via TBMB(SCH2CH2NH-DOTA)) ; response: value
Out: < 10 nM

---

- test: Pharmacokinetic study in mice (plasma, NCA)
- details: mouse, intravenous, 4 nmol/kg, Vz, mouse plasma
experimental_endpoint: Vd (L/kg)
Value expressed in L/kg; do not type the unit.

In: Which Vd value is on record for CCCCCC(=O)N[C@H]1CSCc2cc(CSCCNC(=O)CN3CCN(CC(=O)O)CCN(CC(=O)O)CCN(CC(=O)O)CC3)cc(c2)CSC[C@@H](C(=O)O)NC(=O)[C@H](Cc2ccccc2)NC(=O)[C@H](CCC(N)=O)NC(=O)[C@H]([C@@H](C)O)NC(=O)[C@@H]2CCCN2C(=O)[C@@H]2CCCN2C1=O [3BP-3623] ?
Out: 0.44

---

Field: IC50. Provide a value for each of the compounds that follow.
- subject_of_test: Human recombinant FAP (Homo sapiens, UniProt Q12884)
- Sequence (Q12884 whole entry): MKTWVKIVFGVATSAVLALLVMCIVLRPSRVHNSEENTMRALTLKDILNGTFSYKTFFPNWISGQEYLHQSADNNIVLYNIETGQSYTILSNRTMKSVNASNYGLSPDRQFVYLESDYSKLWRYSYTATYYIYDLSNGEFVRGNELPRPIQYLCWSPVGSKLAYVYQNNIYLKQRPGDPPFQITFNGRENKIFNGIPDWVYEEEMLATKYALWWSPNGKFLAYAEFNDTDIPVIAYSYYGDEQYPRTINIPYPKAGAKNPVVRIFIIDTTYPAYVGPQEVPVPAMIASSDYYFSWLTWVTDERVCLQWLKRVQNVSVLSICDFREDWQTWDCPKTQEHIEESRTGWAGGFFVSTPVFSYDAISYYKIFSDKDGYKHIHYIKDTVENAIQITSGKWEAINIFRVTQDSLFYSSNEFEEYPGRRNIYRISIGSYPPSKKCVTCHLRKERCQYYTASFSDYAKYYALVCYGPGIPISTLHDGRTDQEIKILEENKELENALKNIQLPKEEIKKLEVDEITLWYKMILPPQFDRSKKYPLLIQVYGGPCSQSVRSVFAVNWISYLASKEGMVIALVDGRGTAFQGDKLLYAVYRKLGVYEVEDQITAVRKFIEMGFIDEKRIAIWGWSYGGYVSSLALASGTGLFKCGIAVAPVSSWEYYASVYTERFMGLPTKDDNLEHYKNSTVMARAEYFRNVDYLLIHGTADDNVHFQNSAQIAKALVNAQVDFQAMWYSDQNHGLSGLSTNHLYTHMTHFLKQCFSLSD
- test: FRET-based FAP protease activity assay
- Assay type: biochemical
- Parameters: purchased R&D systems 3715-SE
- details: pIC50 Category (Activity), FRET-based FAP protease activity assay, recombinant human FAP, 37° C.
Numbered stars: 1 amine (or outer) side, 2 acyl side, 3 side chain; on linkers, the order of the positions; unused ones are H or OH. Bridge positions count the residues as written; N and C are the ends. Square brackets hold non-standard residues; d marks the D form. Peptide text beside a SMILES is read from it. * marks the point of attachment. TBMB(SCH2CH2NH-DOTA) = O=C(O)CN1CCN(CC(=O)O)CCN(CC(=O)NCCSCc2cc(C[*:1])cc(C[*:2])c2)CCN(CC(=O)O)CC1; Met(O2) = CS(=O)(=O)CC[C@H](N)C(=O)O; mXylylene = c1cc(C[*:1])cc(C[*:2])c1; NMeF = CN[C@@H](Cc1ccccc1)C(=O)O; Orn = NCCC[C@H](N)C(=O)O; Hexanoyl = CCCCCC(=O)*

In: Entry CCCCCC(=O)N[C@H]1CSCc2cccc(c2)CSC[C@@H](C(N)=O)NC(=O)[C@H](Cc2ccccc2)NC(=O)[C@H](CCS(C)(=O)=O)NC(=O)[C@H]([C@@H](C)O)NC(=O)[C@@H]2CCCN2C(=O)[C@@H]2CCCN2C1=O [3BP-3356] (Hexanoyl-CPPT[Met(O2)]FC-NH2; linker 1-7 via mXylylene) has what IC50?
Out: > 1000 nM

In: Please give the measured IC50 for this compound: CCCCCC(=O)N[C@H]1CSCc2cccc(c2)CSC[C@@H](C(N)=O)NC(=O)[C@H](Cc2ccccc2)NC(=O)[C@H](CCC(=O)O)NC(=O)[C@H](CCCNC(C)=O)NC(=O)[C@@H]2CCCN2C(=O)[C@@H]2CCCN2C1=O [3BP-3372] (Hexanoyl-CPP[Orn](Ac)EFC-NH2; linker 1-7 via mXylylene)
Out: 100 to 794 nM

In: Name the recorded IC50 for CCCCCC(=O)N[C@H]1CSCc2cc(CSCCNC(=O)CN3CCN(CC(=O)O)CCN(CC(=O)O)CCN(CC(=O)O)CC3)cc(c2)CSC[C@@H](C(=O)N[C@H](CC(=O)O)C(N)=O)NC(=O)[C@H](Cc2ccccc2)NC(=O)[C@H](CCC(N)=O)NC(=O)[C@H]([C@@H](C)O)NC(=O)[C@@H]2CCCN2C(=O)[C@@H]2CCCN2C1=O [3BP-3681] .
Out: < 10 nM

In: Form field: reported IC50 of CCCCCC(=O)N[C@H]1CSCc2cccc(c2)CSC[C@@H](C(N)=O)NC(=O)[C@H](Cc2ccccc2)N(C)C(=O)[C@H](CCC(=O)O)NC(=O)[C@H]([C@@H](C)O)NC(=O)[C@@H]2CCCN2C(=O)[C@@H]2CCCN2C1=O [3BP-3358] (Hexanoyl-CPPTE[NMeF]C-NH2; linker 1-7 via mXylylene)
Out: 100 to 794 nM

In: Given CCCCCC(=O)N[C@H]1CSCc2cc(CSCCNC(=O)CCCCCN3C(=CC=CC=CC4=[N+](CCCCS(=O)(=O)[O-])c5ccccc5C4(C)C)C(C)(C)c4ccccc43)cc(c2)CSC[C@@H](C(=O)O)NC(=O)[C@H](Cc2ccccc2)NC(=O)[C@H](CCC(N)=O)NC(=O)[C@H]([C@@H](C)O)NC(=O)[C@@H]2CCCN2C(=O)[C@@H]2CCCN2C1=O [3BP-3694] , state its recorded IC50.
Out: 100 to 794 nM

In: // returns reported IC50 for input CCCCCC(=O)N[C@H]1CSCc2cc(CSCCNC(=O)CN3CCN(CC(=O)O)CCN(CC(=O)O)CCN(CC(=O)O)CC3)cc(c2)CSC[C@@H](C(=O)N[C@@H](CO)C(=O)O)NC(=O)[C@H](Cc2ccccc2)NC(=O)[C@H](CCC(N)=O)NC(=O)[C@H]([C@@H](C)O)NC(=O)[C@@H]2CCCN2C(=O)[C@@H]2CCCN2C1=O [3BP-3658] (Hexanoyl-CPPTQFCS-OH; linker 1-7 via TBMB(SCH2CH2NH-DOTA))
Out: < 10 nM
